A collection of sequences and their measured recombinant barcode read abundance (log10)
test: recombinant barcode read abundance after kanamycin selection (control-corrected) (log10(CPM+1)); higher = more efficient recombination; sequences stand for … in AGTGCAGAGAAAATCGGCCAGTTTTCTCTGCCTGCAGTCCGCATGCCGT…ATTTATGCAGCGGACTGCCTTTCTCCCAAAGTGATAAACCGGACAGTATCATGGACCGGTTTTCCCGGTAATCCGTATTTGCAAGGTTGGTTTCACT; site = the 11-nt target
Give the figure only, with no unit attached.

[[record]]
entry_sequence = "TTATAAAGTTGGGTTCTAACCTGTTGCCTAC [TTATAAACTAG_LTGcore_GT_RTGcore_GT] (site TTATAAACTAG) (LTG core: GT, RTG core: GT)"
reported_value = 0.0636

[[record]]
entry_sequence = "AGTCTTACTTGGGTTCTAACCTGTTGCCATC [AGTCTTACTTG_LTGcore_CT_RTGcore_GA] (site AGTCTTACTTG) (LTG core: CT, RTG core: GA)"
reported_value = 0.155


With those in mind, consider the next sequence.
Recorded result, TTATAAAAGTGGGTTCTAACCTGTTGCCTAG [TTATAAACTAG_LTGcore_AG_RTGcore_CT] (site TTATAAACTAG) (LTG core: AG, RTG core: CT) , recombinant barcode read abundance (log10): 0.0357
